The reported measurements were obtained from ChEMBL document CHEMBL6109036.

test system: Helicobacter pylori; test: Anti-bacterial activity against Helicobacter pylori Clinical isolate 23 measured after 72 hrs incubation by modified broth dilution method; format: functional
Metric name: MIC (mg/L)
Write it as a number; the unit mg/L goes unstated.

Reported MIC, compound COc1ccc(/N=N/c2cc(C)c(O)cc2C(C)C)cc1 : ____ 8

Do the same for Cc1cc(/N=N/c2ccccc2Cl)c(C(C)C)cc1O please 4

Do the same for COc1ccc(/N=N/c2cc(C(C)C)c(OC(C)=O)cc2C)cc1 please 64

Do the same for Cc1ccc(C(C)C)c(O)c1 [THYMOL] please 128

Do the same for COc1cc(C=O)cc(/N=N/c2ccc(C)cc2)c1O please 8

Do the same for C=CCc1cc(/N=N/c2cccc([N+](=O)[O-])c2)c(O)c(OC)c1 please 128

Do the same for C=CCc1cc(/N=N/c2ccc([N+](=O)[O-])cc2)c(O)c(OC)c1 please 128

Do the same for CC(=O)Oc1cc(C)c(/N=N/c2ccc([N+](=O)[O-])cc2)cc1C(C)C please 128

Do the same for Cc1ccc(C(C)C)c(/N=N/c2ccc([N+](=O)[O-])cc2)c1O please 2

Do the same for COc1cc(C=O)cc(/N=N/c2ccccc2Cl)c1O please 64

Do the same for COc1cc(C=O)cc(/N=N/c2ccc(C#N)cc2)c1O please 8

Do the same for CC[C@H]1OC(=O)[C@H](C)[C@@H](O[C@H]2C[C@@](C)(OC)[C@@H](O)[C@H](C)O2)[C@H](C)[C@@H](O[C@@H]2O[C@H](C)C[C@H](N(C)C)[C@H]2O)[C@](C)(OC)C[C@@H](C)C(=O)[C@H](C)[C@@H](O)[C@]1(C)O [CLARITHROMYCIN] please 0.064

Do the same for Cc1c(/N=N/c2ccccc2Cl)cc(C(C)C)c(O)c1/N=N/c1ccccc1Cl please 128

Do the same for Cc1ccc(C(C)C)cc1O [CARVACROL] please 64

Do the same for Cc1ccccc1/N=N/c1cc(C(C)C)c(O)cc1C please 8

Do the same for Cc1cc(O)c(C(C)C)cc1C1(c2cc(C(C)C)c(O)cc2C)OS(=O)(=O)c2ccccc21 please 128
